Each recorded value in this set is attributed to patent US10285986B2.

- assay-procedure: Solubility in organic solvents
- Assay type: physicochemical
- condition-description: organic solvent or mixture, thermodynamic from solid; CH2Cl2:MeOH 2:1; Table 1; read-out: CH2Cl2:MeOH 2:1 solubility
- Experimental: The solubility of DNQ derivatives in organic solvents was determined by measuring the amount of a given solvent required to dissolve a known amount of compound. Solvent was added to the compound in 50 μL aliquots and the slurry was sonicated. […] Solubility was assessed in DMSO, dichloromethane, and 33% methanol in dichloromethane (FIGS. 9, 10, and 11, respectively).
reported-metric: solubility (mM)
Respond numerically; units are mM and should not be typed.

INSERT INTO measurements (molecule, reported_metric, result_value) VALUES
  ('CCCc1cc(=O)[nH]c2c1C(=O)c1c(C)cc(=O)n(C)c1C2=O [Compound 4-12]', 'solubility', 10),
  ('Cc1cc(=O)n(C)c2c1C(=O)c1c(C)cc(=O)n(C)c1C2=O [SCH, reference compound]', 'solubility', 60),
  ('CCCCCCn1c2c(c(C)cc1=O)C(=O)c1c(C)cc(=O)[nH]c1C2=O [Compound 9-257]', 'solubility', 140),
  ('CCCCn1c2c(c(C)cc1=O)C(=O)c1c(CCC)cc(=O)[nH]c1C2=O [Compound 4-27]', 'solubility', 49),
  ('CCCCn1c2c(c(C)cc1=O)C(=O)c1c(C)cc(=O)[nH]c1C2=O [Compound 4-22]', 'solubility', 30),
  ('CCCc1cc(=O)n(C)c2c1C(=O)c1c(C)cc(=O)[nH]c1C2=O [Compound 4-9]', 'solubility', 18),
  ('Cc1cc(=O)[nH]c2c1C(=O)c1c(C)cc(=O)n(CC(C)C)c1C2=O [Compound 87]', 'solubility', 140);

Look up and report measured solubility for this entry: Cc1cc(=O)[nH]c2c1C(=O)c1c(C)cc(=O)n(CCC(C)C)c1C2=O [Compound 9-249]
58

---

Listing: Solubility in DMSO of selected molecules
- assay-procedure: Solubility in organic solvents
- Type: physicochemical
- condition-description: DMSO; Table 4.3
The reply should be a number in mM, with the unit left off.

Recorded results for 3 molecules are shown here.
INSERT INTO assay_data (molecule, units_symbol, result_value) VALUES
  ('CCCCCCn1c2c(c(C)cc1=O)C(=O)c1c(C)cc(=O)[nH]c1C2=O', 'mM', 18),
  ('CCc1cc(=O)[nH]c2c1C(=O)c1c(C)cc(=O)n(C)c1C2=O', 'mM', 16),
  ('CCCCn1c2c(c(CCC)cc1=O)C(=O)c1c(C)cc(=O)[nH]c1C2=O', 'mM', 14);

Indicate the recorded Solubility in DMSO value for this molecule: "CCCc1cc(=O)n(C)c2c1C(=O)c1c(C)cc(=O)[nH]c1C2=O"
10

Find the measured Solubility in DMSO of "CCCCn1c2c(c(C)cc1=O)C(=O)c1c(CCC)cc(=O)[nH]c1C2=O" and report it.
10

// fetch Solubility in DMSO given entry "Cc1cc(=O)[nH]c2c1C(=O)c1c(C)cc(=O)n(CC(C)(C)C)c1C2=O"
16

Indicate its recorded Solubility in DMSO; the molecule in question is "Cc1cc(=O)[nH]c2c1C(=O)c1c(C)cc(=O)n(CCC(C)C)c1C2=O"
8.6

Please give measured Solubility in DMSO of the following entry: "Cc1cc(=O)[nH]c2c1C(=O)c1c(C)cc(=O)n(CC(C)C)c1C2=O"
110
